Biological target: Papain (Carica papaya) (UniProt P00784)
Sequence (P00784 whole entry): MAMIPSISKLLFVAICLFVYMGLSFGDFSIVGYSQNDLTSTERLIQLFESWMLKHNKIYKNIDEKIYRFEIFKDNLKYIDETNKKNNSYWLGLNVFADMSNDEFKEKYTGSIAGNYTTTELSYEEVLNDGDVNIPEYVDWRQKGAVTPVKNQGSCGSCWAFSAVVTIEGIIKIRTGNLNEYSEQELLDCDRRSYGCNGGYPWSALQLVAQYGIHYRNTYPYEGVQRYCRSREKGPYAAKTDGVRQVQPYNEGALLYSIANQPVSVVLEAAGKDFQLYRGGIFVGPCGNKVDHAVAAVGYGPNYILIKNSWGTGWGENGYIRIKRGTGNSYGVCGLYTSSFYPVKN
Assay: Inhibition of papaya papain assessed as cleavage of (EDANS)-EPLFAERK-(DABCYL) at 100 uM by fluorescence spectrometer
Activity calls are given as the source filed them. The calls are words filed in the database; no cut-off is given here.
measured.quantity: inhibition

CC(C)C[C@H](/N=C1\N[C@@H](C)[C@@H](C(=O)NC(C)(C)C)N2CCC[C@H]12)C(=O)N[C@@H](CCCCN)C(=O)NCC(=O)O; inactive
CC(C)C[C@@H](NC(=O)C/N=C1\N[C@@H](C)[C@@H](C(=O)NC(C)(C)C)N2CCC[C@H]12)C(=O)N[C@H](CCCN)C(=O)O; inactive
C[C@@H]1NC(=O)[C@H](CCCN)NC(=O)CNC(=O)[C@H](CO)NC(=O)CNC(=O)[C@@H]2CCCN2[C@@H]1C(=O)NC(C)(C)C; inactive
CC(C)C[C@@H]1NC(=O)[C@H](C)NC(=O)CNC(=O)[C@@H]2CCCN2[C@H](C(=O)NC(C)(C)C)[C@H](C)NC(=O)[C@H](CCCCN)NC1=O; inactive
